Numbers sourced from patent US20260242735A1.

Tested On: human CD33 H285A (human, UniProt P20138 18-364)
Sequence (P20138 18-364 H285A limits assumed): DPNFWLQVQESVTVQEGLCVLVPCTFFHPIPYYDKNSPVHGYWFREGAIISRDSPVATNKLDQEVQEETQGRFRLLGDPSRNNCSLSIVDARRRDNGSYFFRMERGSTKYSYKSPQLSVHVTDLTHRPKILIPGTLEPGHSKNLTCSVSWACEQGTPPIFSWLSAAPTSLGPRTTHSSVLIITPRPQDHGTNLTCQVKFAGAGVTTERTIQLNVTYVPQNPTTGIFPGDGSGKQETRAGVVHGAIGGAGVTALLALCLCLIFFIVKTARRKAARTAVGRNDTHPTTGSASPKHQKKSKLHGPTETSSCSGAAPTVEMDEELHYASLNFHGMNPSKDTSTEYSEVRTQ
Assay: alanine scan, flow cytometry, HEK293-T;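 also: antibody binding to each alanine-substituted CD33 mutant expressed transiently in HEK293-T, read as fluorescence minus background, mean of duplicates, relative to wild-type CD33 set as 100%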

Binder | Output Unit | Mean % WT Binding
Refmab #4 (antibody, V domains shown, The alanine scan used IgG or Fab) VH: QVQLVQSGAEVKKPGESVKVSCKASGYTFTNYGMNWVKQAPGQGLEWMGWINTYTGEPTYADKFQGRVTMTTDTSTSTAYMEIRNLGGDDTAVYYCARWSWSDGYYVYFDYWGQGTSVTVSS VL: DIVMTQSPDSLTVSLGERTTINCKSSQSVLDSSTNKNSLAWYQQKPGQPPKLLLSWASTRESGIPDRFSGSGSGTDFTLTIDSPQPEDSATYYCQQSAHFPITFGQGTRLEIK | % WT binding | 95.2
Refmab #1 (antibody, V domains shown, The alanine scan used IgG or Fab; also called hP67.6) VH: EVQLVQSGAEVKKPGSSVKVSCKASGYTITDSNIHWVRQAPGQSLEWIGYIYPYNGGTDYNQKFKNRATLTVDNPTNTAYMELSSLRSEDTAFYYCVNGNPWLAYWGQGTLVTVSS VL: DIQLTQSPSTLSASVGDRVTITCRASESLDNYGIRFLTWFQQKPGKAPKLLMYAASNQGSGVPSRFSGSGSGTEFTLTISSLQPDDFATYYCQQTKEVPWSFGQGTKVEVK | % WT binding | 100
Refmab #2 (antibody, V domains shown, The alanine scan used IgG or Fab) VH: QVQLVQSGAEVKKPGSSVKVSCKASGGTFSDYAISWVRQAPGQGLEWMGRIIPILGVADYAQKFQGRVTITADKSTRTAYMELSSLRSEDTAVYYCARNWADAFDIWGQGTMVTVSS VL: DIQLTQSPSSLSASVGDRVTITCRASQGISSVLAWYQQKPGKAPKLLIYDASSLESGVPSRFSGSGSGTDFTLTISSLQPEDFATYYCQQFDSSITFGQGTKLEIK | % WT binding | 109
Refmab #3 (antibody, V domains shown, The alanine scan used IgG or Fab) VH: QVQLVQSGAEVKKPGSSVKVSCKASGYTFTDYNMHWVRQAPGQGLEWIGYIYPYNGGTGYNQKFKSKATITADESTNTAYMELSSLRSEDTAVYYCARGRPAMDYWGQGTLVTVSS VL: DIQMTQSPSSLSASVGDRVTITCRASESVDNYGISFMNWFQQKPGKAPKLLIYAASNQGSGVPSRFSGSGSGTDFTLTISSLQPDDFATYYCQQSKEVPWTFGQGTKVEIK | % WT binding | 94.3
